Molecular target: T1, mouse CLDN6 fused to GFP, expressed on engineered HEK293T cells (mouse, UniProt Q9Z262 1-219)
T1 construct: whole, on cells; also called HEK293T-CLDN6-mGFP Artificial CLDN6+ (mouse); murine CLDN6; not shown: GFP tag
T1 sequence (looked up): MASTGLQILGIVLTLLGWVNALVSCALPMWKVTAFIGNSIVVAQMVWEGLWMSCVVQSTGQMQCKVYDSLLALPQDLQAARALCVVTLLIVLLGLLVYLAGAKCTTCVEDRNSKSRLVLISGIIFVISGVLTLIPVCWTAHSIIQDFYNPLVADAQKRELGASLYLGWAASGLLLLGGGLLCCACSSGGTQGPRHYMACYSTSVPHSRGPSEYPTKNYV
Assay: FACS, 293T clone with mouse CLDN6
A collection of binders and their measured FACS signal
Observation Type: FACS signal

AB3-2 (antibody, V domains shown, Humanized; also called humanized AB 3-2) VH: EVQLLESGGGLVQPGGSMRLSCAASGFTFSNYWMNWVRQAPGKGLEWVAQIRLKSDNYATHYADSVKGRFTISRDDSKNTVYLQMNSLRAEDTGVYYCNDGPPSGCWGQGTLLTVSS VL: DIQMTQSPSSLSASVGDRVTITCRISENIYSYLAWYQQKPGKAPKLLIYNAKILVEGVPSRFSGSGSGTDFTLTISSLQPEDFATYYCQHHYTVPWTFGQGTKLEIK :: 31700
AB3-7 (antibody, V domains shown, Humanized; also called humanized AB3-7; AB23) VH: EVQLLESGGGLVQPGGSMRLSCAASGFTFSNYWMNWVRQAPGKGLEWVAQIRLKSDNYATHYADSVKGRFTISRDDSKNTVYLQMNSLRAEDTGVYYCNDGPPSGSWGQGTLLTVSS VL: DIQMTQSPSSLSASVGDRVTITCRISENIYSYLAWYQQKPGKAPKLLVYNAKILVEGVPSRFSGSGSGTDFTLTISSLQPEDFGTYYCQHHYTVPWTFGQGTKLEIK :: 56100
AB4-4 (antibody, V domains shown, Humanized; also called humanized AB 4-4) VH: QVQLVQSGAEVKKPGASVKMSCKASGYTFTSYTMHWIRQAPGQGLEWIGYINPSSTYTHYAQKFQGRATLTADTSTSTAYMELSSLRSEDTAVYYCSRGELGGFAYWGQGTLVTVSS VL: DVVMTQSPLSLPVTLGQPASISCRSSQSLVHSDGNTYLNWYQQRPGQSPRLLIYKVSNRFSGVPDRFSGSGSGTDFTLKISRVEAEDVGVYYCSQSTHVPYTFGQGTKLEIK :: 741
